Molecular target: PKC isozyme ε (Homo sapiens, UniProt Q02156)
Construct: endogenous in cells; host or cells: HL-60
Sequence (Q02156 whole entry): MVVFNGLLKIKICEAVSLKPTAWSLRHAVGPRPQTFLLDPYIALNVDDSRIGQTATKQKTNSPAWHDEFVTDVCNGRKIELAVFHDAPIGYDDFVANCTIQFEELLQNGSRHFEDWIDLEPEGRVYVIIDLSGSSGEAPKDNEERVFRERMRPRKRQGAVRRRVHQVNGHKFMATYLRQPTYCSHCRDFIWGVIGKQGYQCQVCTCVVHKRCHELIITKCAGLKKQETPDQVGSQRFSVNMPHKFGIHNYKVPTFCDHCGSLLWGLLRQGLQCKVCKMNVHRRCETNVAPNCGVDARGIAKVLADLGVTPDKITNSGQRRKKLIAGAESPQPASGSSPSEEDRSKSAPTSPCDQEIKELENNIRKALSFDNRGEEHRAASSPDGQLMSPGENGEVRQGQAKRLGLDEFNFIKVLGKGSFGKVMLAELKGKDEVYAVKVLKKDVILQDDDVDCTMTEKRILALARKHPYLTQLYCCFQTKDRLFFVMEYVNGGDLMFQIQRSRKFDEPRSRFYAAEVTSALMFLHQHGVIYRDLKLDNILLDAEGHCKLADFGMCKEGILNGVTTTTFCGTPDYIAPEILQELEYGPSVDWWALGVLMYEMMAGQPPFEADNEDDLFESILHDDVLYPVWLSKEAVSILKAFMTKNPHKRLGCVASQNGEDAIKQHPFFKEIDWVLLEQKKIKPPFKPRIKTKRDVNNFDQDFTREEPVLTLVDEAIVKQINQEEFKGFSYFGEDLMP
Experiment: PMA-induced PKC translocation in HL-60 cells (Western blot)
Format: cell-based
Set-up: key: +++: strong inhibition of PKC activation; −: no inhibition of PKC activation
Conditions: 20 μM, 60 min
Measurement Name: Inhibition of PKC activation, isozyme ε

Observe how each entry below is paired with its result.
INSERT INTO measurements (compound, measurement_target, obs_value) VALUES
  ('CCCCCCCCCCCCCCCCCC(CCC(=O)O)(CCC(=O)O)[N+](=O)[O-] [Lx8]', 'PKC isozyme ε (Homo sapiens, UniProt Q02156)', '+++'),
  ('CC/C=C\C/C=C\C/C=C\CCCCCCCC[N+](=O)[O-] [Lx2]', 'PKC isozyme ε (Homo sapiens, UniProt Q02156)', '−'),
  ('CCCCC/C=C\C/C=C\C/C=C\CCCCC[N+](=O)[O-] [Lx3]', 'PKC isozyme ε (Homo sapiens, UniProt Q02156)', '−'),
  ('CCCCCCCCCCCCCCCCCC[N+](=O)[O-] [Lx1]', 'PKC isozyme ε (Homo sapiens, UniProt Q02156)', '−');

Next:
Find the recorded Inhibition of PKC activation, isozyme ε belonging to CCCCC/C=C\C/C=C\C/C=C\C/C=C\CCCC[N+](=O)[O-] [Lx4] and report it. −
